Reported MIC values for the following compounds.
test system: Bacillus subtilis; test: Antibacterial activity against Bacillus subtilis 168 ATCC 23857 after 48 hrs by microdilution method; assay type: functional; details: subsp. subtilis str. 168 ATCC 23857, 48 h
Report as: number unit

Solved cases (2 shown):
| structure as smiles | target or system | MIC |
| --- | --- | --- |
| CN(c1ccc(C(=O)NCCCN)cc1)S(=O)(=O)c1cc(C(C)(C)C)cc(C(C)(C)C)c1.Cl | Bacillus subtilis | 8 µg/mL |
| COc1c(C(C)(C)C)cc(S(=O)(=O)Nc2ccc(C(=O)NCCNC(=N)N)cc2)cc1C(C)(C)C.Cl | Bacillus subtilis | 4 µg/mL |

Lab note: need MIC for CC(C)(C)c1cc(C(C)(C)C)cc(S(=O)(=O)Nc2cccc(C(=O)NCCN)c2)c1.Cl on Bacillus subtilis, anyone have it? 8 µg/mL

Lab note: need MIC for CC(C)(C)c1cc(C(C)(C)C)cc(S(=O)(=O)N2CCC[C@H]2C(=O)NCCNC(=N)N)c1.Cl on Bacillus subtilis, anyone have it? 32 µg/mL

Lab note: need MIC for CN(c1ccc(C(=O)NCCCNC(=N)N)cc1)S(=O)(=O)c1cc(C(C)(C)C)cc(C(C)(C)C)c1.Cl on Bacillus subtilis, anyone have it? 4 µg/mL

Lab note: need MIC for CC(C)(C)c1cc(C(C)(C)C)cc(S(=O)(=O)Nc2cc3ccccc3cc2C(=O)NCCN)c1.Cl on Bacillus subtilis, anyone have it? 4 µg/mL

Lab note: need MIC for CC(C)(C)c1cc(C(C)(C)C)cc(S(=O)(=O)Nc2cccc(C(=O)NCCNC(=N)N)c2)c1.Cl on Bacillus subtilis, anyone have it? 8 µg/mL

Lab note: need MIC for CC(C)(C)c1cc(C(C)(C)C)cc(S(=O)(=O)NCc2ccc(C(=O)NCCN)cc2)c1.Cl on Bacillus subtilis, anyone have it? 8 µg/mL

----------
test system: Staphylococcus epidermidis; assay: Antibiofilm activity against Staphylococcus epidermidis RP62A ATCC 35984/CCUG 31568 incubated for 24 +/- 2 hrs by crystal violet staining based assay; type: functional
Reported MBIC=>90 values for the following molecules.
Kindly provide the numeric value in µg/mL only, without the unit symbol.

Solved cases (5 shown):
| structure as smiles | u | MBIC=>90 |
| --- | --- | --- |
| CC(C)(C)c1cc(C(C)(C)C)cc(S(=O)(=O)Nc2ccc(CC(=O)NCCNC(=N)N)cc2)c1.Cl | µg/mL | 40 |
| CN(c1ccc(C(=O)NCCCNC(=N)N)cc1)S(=O)(=O)c1cc(C(C)(C)C)cc(C(C)(C)C)c1.Cl | µg/mL | 40 |
| CC(C)(C)c1cc(C(C)(C)C)cc(S(=O)(=O)N2CCC(C(=O)NCCNC(=N)N)CC2)c1.Cl | µg/mL | 80 |
| CC(C)(C)c1cc(C(C)(C)C)cc(S(=O)(=O)NCc2ccc(C(=O)NCCNC(=N)N)cc2)c1.Cl | µg/mL | 80 |
| CC(C)(C)c1cc(C(C)(C)C)cc(S(=O)(=O)Nc2ccc(C(=O)NCCNC(=N)N)cc2)c1.Cl | µg/mL | 40 |

Quick check: MBIC=>90 of CN(c1cccc(C(=O)NCCNC(=N)N)c1)S(=O)(=O)c1cc(C(C)(C)C)cc(C(C)(C)C)c1.Cl ? 40

Quick check: MBIC=>90 of Cl.N=C(N)NCCNC(=O)c1ccc(NS(=O)(=O)c2ccc3ccccc3c2)cc1 ? 160

Quick check: MBIC=>90 of CC(C)(C)c1cc(C(C)(C)C)cc(S(=O)(=O)Nc2cc3ccccc3cc2C(=O)NCCNC(=N)N)c1.Cl ? 40

----------
system: Staphylococcus epidermidis; assay: Antibacterial activity against methicillin resistant Staphylococcus epidermidis RP62A ATCC 35984/CCUG 31568 after 48 hrs by microdilution method; assay type: functional; conditions: RP62A ATCC 35984/CCUG 31568, 48 h
property: MIC (µg/mL)
Kindly provide the numeric value in µg/mL only, without the unit symbol.

Quick check: MIC of CC(C)(C)c1cc(C(C)(C)C)cc(S(=O)(=O)NCc2ccc(C(=O)NCCN)cc2)c1.Cl ? 16

Quick check: MIC of Cl.N=C(N)NCCNC(=O)c1ccc(NS(=O)(=O)c2ccc3ccccc3c2)cc1 ? 32

Quick check: MIC of CN(c1ccc(C(=O)NCCCNC(=N)N)cc1)S(=O)(=O)c1cc(C(C)(C)C)cc(C(C)(C)C)c1.Cl ? 4

Quick check: MIC of CC(C)(C)c1cc(C(C)(C)C)cc(S(=O)(=O)NCc2ccc(C(=O)NCCNC(=N)N)cc2)c1.Cl ? 8

----------
system: Enterococcus sp.; experiment: Antibacterial activity against Enterococcus sp. clinical isolates after 24 hrs by microdilution method; type: functional
property: MIC (µg/mL)
Kindly provide the numeric value in µg/mL only, without the unit symbol.

| structure as smiles | target or system | MIC [µg/mL] |
| --- | --- | --- |
| CC(C)(C)c1cc(C(C)(C)C)cc(S(=O)(=O)NCc2ccc(C(=O)NCCNC(=N)N)cc2)c1.Cl | Enterococcus sp. | 64 |
| COc1c(C(C)(C)C)cc(S(=O)(=O)Nc2ccc(C(=O)NCCNC(=N)N)cc2)cc1C(C)(C)C.Cl | Enterococcus sp. | 64 |
| CC(C)(C)c1cc(C(C)(C)C)cc(S(=O)(=O)Nc2ccccc2C(=O)NCCNC(=N)N)c1.Cl | Enterococcus sp. | 32 |

Quick check: MIC of CC(C)(C)c1cc(C(C)(C)C)cc(S(=O)(=O)NCCCCNC(=N)N)c1.Cl ? 32

Quick check: MIC of CC(C)(C)c1cc(C(C)(C)C)cc(S(=O)(=O)Nc2ccc(C(=O)NCCNC(=N)N)cc2)c1.Cl ? 32

Quick check: MIC of Cc1cc(C(=O)NCCNC(=N)N)ccc1NS(=O)(=O)c1cc(C(C)(C)C)cc(C(C)(C)C)c1.Cl ? 32

Quick check: MIC of CC(C)(C)c1cc(C(C)(C)C)cc(S(=O)(=O)Nc2cccc(C(=O)NCCNC(=N)N)c2)c1.Cl ? 32

----------
system: Staphylococcus epidermidis; test: Antibacterial activity against methicillin resistant Staphylococcus epidermidis RP62A ATCC 35984/CCUG 31568 after 48 hrs by microdilution method; type: functional; details: RP62A ATCC 35984/CCUG 31568, 48 h
property: MIC (µg/mL)
Kindly provide the numeric value in µg/mL only, without the unit symbol.

Solved cases (4 shown):
| structure as smiles | target or system | u | MIC |
| --- | --- | --- | --- |
| CN(c1ccc(C(=O)NCCN)cc1)S(=O)(=O)c1cc(C(C)(C)C)cc(C(C)(C)C)c1.Cl | Staphylococcus epidermidis | µg/mL | 16 |
| CC(C)(C)c1cc(C(C)(C)C)cc(S(=O)(=O)Nc2ccccc2C(=O)NCCNC(=N)N)c1.Cl | Staphylococcus epidermidis | µg/mL | 8 |
| CC(C)(C)c1cc(C(C)(C)C)cc(S(=O)(=O)Nc2cccc(C(=O)NCCN)c2)c1.Cl | Staphylococcus epidermidis | µg/mL | 8 |
| CC(C)(C)c1cc(C(C)(C)C)cc(S(=O)(=O)Nc2ccc(C(=O)NCCNC(=N)N)cc2)c1.Cl | Staphylococcus epidermidis | µg/mL | 4 |

Okay, next one:
Quick check: MIC of Cc1cc(C)cc(S(=O)(=O)Nc2ccc(C(=O)NCCNC(=N)N)cc2)c1.Cl ? 64

----------
system: Staphylococcus aureus; assay: Antibacterial activity against Staphylococcus aureus ATCC 9144 after 48 hrs by microdilution method; assay type: functional; conditions: ATCC 9144, 48 h
property: MIC (µg/mL)
Kindly provide the numeric value in µg/mL only, without the unit symbol.

| structure as smiles | result value |
| --- | --- |
| CN(c1ccc(C(=O)NCCCNC(=N)N)cc1)S(=O)(=O)c1cc(C(C)(C)C)cc(C(C)(C)C)c1.Cl | 4 |
| CC(C)(C)c1cc(C(C)(C)C)cc(S(=O)(=O)Nc2ccccc2C(=O)NCCNC(=N)N)c1.Cl | 4 |
| CN(c1ccc(C(=O)NCCN)cc1)S(=O)(=O)c1cc(C(C)(C)C)cc(C(C)(C)C)c1.Cl | 16 |
| CN(c1cccc(C(=O)NCCN)c1)S(=O)(=O)c1cc(C(C)(C)C)cc(C(C)(C)C)c1.Cl | 16 |
| CC(C)(C)c1cc(C(C)(C)C)cc(S(=O)(=O)Nc2cccc(C(=O)NCCNC(=N)N)c2)c1.Cl | 8 |

Quick check: MIC of CC(C)(C)c1cc(C(C)(C)C)cc(S(=O)(=O)NCc2ccc(C(=O)NCCN)cc2)c1.Cl ? 32

Quick check: MIC of CN(c1ccc(C(=O)NCCNC(=N)N)cc1)S(=O)(=O)c1cc(C(C)(C)C)cc(C(C)(C)C)c1.Cl ? 4
